System: 439559-082-T-J2-PDC complex spheroid growth;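 further: spheroids exposed to agents for 7 days starting day 3 after seeding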
Test: Anticancer human tumor 439559-082-T-J2-PDC patient-derived colon adenocarcinoma cell line growth inhibition [Asc]
Conditions: curve of first compound; second compound 0.1 µM
pIC50: −log10 of the molar value.
Measured pIC50 of individual entries

C=CC(=O)N1CCN(c2nc(=O)n(-c3c(C)ccnc3C(C)C)c3nc(-c4c(O)cccc4F)c(F)cc23)C(C)C1 (centres undefined) + CNC(C)C(=O)NC1CN(S(=O)(=O)c2cccc(S(=O)(=O)N3CCC4CCC(C(=O)NC(c5ccccc5)c5ccccc5)N4C(=O)C(NC(=O)C(C)NC)C3)c2)CCC2CCC(C(=O)NC(c3ccccc3)c3ccccc3)N2C1=O	< 5.00

Report value: pIC50, system: 439559-082-T-J2-PDC complex spheroid growth, molecule: Cn1ncnc1[C@H]1c2n[nH]c(=O)c3cc(F)cc(c23)N[C@@H]1c1ccc(F)cc1 + Cc1c(S(C)(=O)=O)c(-c2cc(F)cc(N3CCN(c4ccc(NS(=O)(=O)c5ccc(NC(CCN6CCC(C(=O)OCCCP(=O)(O)O)CC6)CSc6ccccc6)c(S(=O)(=O)C(F)(F)F)c5)cc4)CC3)c2)c(-c2ccc(Cl)cc2)n1C(C)C < 7.00

Report value: pIC50, system: 439559-082-T-J2-PDC complex spheroid growth, molecule: CCN1CCN(Cc2ccc(Nc3ncc(F)c(-c4cc(F)c5nc(C)n(C(C)C)c5c4)n3)nc2)CC1 + Cc1c(S(C)(=O)=O)c(-c2cc(F)cc(N3CCN(c4ccc(NS(=O)(=O)c5ccc(NC(CCN6CCC(C(=O)OCCCP(=O)(O)O)CC6)CSc6ccccc6)c(S(=O)(=O)C(F)(F)F)c5)cc4)CC3)c2)c(-c2ccc(Cl)cc2)n1C(C)C < 6.00

Report value: pIC50, system: 439559-082-T-J2-PDC complex spheroid growth, molecule: O=C(c1ccc(F)c(F)c1Nc1ccc(I)cc1F)N1CC(O)([C@@H]2CCCCN2)C1 + CNC(C)C(=O)NC1CN(S(=O)(=O)c2cccc(S(=O)(=O)N3CCC4CCC(C(=O)NC(c5ccccc5)c5ccccc5)N4C(=O)C(NC(=O)C(C)NC)C3)c2)CCC2CCC(C(=O)NC(c3ccccc3)c3ccccc3)N2C1=O 6.64
